Property: IC50; scope: individual compounds
- SYSTEM_UNDER_TEST: mtGPAT1 (Mus musculus, UniProt Q61586)
- Construct: from tissue; host or cells: mitochondrial preparation
- Sequence (Q61586 1-827): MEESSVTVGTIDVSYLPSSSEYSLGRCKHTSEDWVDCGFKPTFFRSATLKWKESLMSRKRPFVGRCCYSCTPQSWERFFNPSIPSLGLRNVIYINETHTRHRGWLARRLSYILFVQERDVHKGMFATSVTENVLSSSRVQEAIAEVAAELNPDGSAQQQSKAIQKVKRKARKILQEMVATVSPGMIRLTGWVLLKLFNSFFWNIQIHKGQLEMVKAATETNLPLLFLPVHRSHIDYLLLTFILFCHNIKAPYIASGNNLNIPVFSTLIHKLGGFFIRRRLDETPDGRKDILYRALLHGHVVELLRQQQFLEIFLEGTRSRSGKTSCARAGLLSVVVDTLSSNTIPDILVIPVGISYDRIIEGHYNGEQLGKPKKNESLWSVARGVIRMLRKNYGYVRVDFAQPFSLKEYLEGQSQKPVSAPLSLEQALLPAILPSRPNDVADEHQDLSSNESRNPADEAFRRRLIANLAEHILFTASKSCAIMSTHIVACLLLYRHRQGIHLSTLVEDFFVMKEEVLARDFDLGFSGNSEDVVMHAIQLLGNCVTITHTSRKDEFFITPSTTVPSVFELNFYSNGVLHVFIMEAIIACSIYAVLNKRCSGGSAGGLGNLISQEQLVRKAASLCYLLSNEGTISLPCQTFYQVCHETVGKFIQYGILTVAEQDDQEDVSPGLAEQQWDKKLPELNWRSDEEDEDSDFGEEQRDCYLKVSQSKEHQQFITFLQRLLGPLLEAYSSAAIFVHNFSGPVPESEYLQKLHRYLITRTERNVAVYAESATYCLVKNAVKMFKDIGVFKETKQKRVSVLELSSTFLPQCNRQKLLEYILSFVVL
- ASSAY_METHOD_TEXT: In vitro mtGPAT inhibition: acylation of 14C-glycerol 3-phosphate with palmitoyl-CoA, scintillation counting
- Type: biochemical
- EXPERIMENTAL_SETUP: compounds 4a-t and 7a-t; read-out: GPAT IC50
PROPERTY_NAME: IC50 (µM)

[
  {
    "SMILES_CODE": "CCCCCCCCS(=O)(=O)Nc1ccc(-c2ccc(C(C)=O)cc2)cc1C(=O)O",
    "SYSTEM_UNDER_TEST": "mtGPAT1 (Mus musculus, UniProt Q61586)",
    "REPORTED_RESULT": 702
  },
  {
    "SMILES_CODE": "CCCCCCCCS(=O)(=O)Nc1cc(-c2ccccc2O)ccc1C(=O)O",
    "SYSTEM_UNDER_TEST": "mtGPAT1 (Mus musculus, UniProt Q61586)",
    "REPORTED_RESULT": 62.6
  },
  {
    "SMILES_CODE": "CCCCCCCCS(=O)(=O)Nc1ccc(-c2ccc(C#N)cc2)cc1C(=O)O",
    "SYSTEM_UNDER_TEST": "mtGPAT1 (Mus musculus, UniProt Q61586)",
    "REPORTED_RESULT": 24.6
  },
  {
    "SMILES_CODE": "CCCCCCCCS(=O)(=O)Nc1ccc(-c2cccc(C(C)=O)c2)cc1C(=O)O",
    "SYSTEM_UNDER_TEST": "mtGPAT1 (Mus musculus, UniProt Q61586)",
    "REPORTED_RESULT": 28
  },
  {
    "SMILES_CODE": "CCCCCCCCS(=O)(=O)Nc1cc(-c2ccc(F)cc2)ccc1C(=O)O",
    "SYSTEM_UNDER_TEST": "mtGPAT1 (Mus musculus, UniProt Q61586)",
    "REPORTED_RESULT": 25.3
  },
  {
    "SMILES_CODE": "CCCCCCCCS(=O)(=O)Nc1cc(-c2cccc(O)c2)ccc1C(=O)O",
    "SYSTEM_UNDER_TEST": "mtGPAT1 (Mus musculus, UniProt Q61586)",
    "REPORTED_RESULT": 55.5
  },
  {
    "SMILES_CODE": "CCCCCCCCS(=O)(=O)Nc1cc(-c2ccc(Cl)cc2Cl)ccc1C(=O)O",
    "SYSTEM_UNDER_TEST": "mtGPAT1 (Mus musculus, UniProt Q61586)",
    "REPORTED_RESULT": 18.3
  },
  {
    "SMILES_CODE": "CCCCCCCCS(=O)(=O)Nc1ccc(-c2ccc(OC)cc2)cc1C(=O)O",
    "SYSTEM_UNDER_TEST": "mtGPAT1 (Mus musculus, UniProt Q61586)",
    "REPORTED_RESULT": 19.1
  },
  {
    "SMILES_CODE": "CCCCCCCCS(=O)(=O)Nc1ccc(-c2cccnc2)cc1C(=O)O",
    "SYSTEM_UNDER_TEST": "mtGPAT1 (Mus musculus, UniProt Q61586)",
    "REPORTED_RESULT": 76.3
  },
  {
    "SMILES_CODE": "CCCCCCCCS(=O)(=O)Nc1cc(-c2ccc(Cl)cc2)ccc1C(=O)O",
    "SYSTEM_UNDER_TEST": "mtGPAT1 (Mus musculus, UniProt Q61586)",
    "REPORTED_RESULT": 18.4
  },
  {
    "SMILES_CODE": "CCCCCCCCS(=O)(=O)Nc1cc(-c2ccccc2OC)ccc1C(=O)O",
    "SYSTEM_UNDER_TEST": "mtGPAT1 (Mus musculus, UniProt Q61586)",
    "REPORTED_RESULT": 17.6
  },
  {
    "SMILES_CODE": "CCCCCCCCS(=O)(=O)Nc1cc(-c2cccnc2)ccc1C(=O)O",
    "SYSTEM_UNDER_TEST": "mtGPAT1 (Mus musculus, UniProt Q61586)",
    "REPORTED_RESULT": 65.8
  },
  {
    "SMILES_CODE": "CCCCCCCCS(=O)(=O)Nc1ccc(-c2ccc(F)cc2)cc1C(=O)O",
    "SYSTEM_UNDER_TEST": "mtGPAT1 (Mus musculus, UniProt Q61586)",
    "REPORTED_RESULT": 20.6
  },
  {
    "SMILES_CODE": "CCCCCCCCS(=O)(=O)Nc1cc(-c2cc(Cl)cc(Cl)c2)ccc1C(=O)O",
    "SYSTEM_UNDER_TEST": "mtGPAT1 (Mus musculus, UniProt Q61586)",
    "REPORTED_RESULT": 19.2
  },
  {
    "SMILES_CODE": "CCCCCCCCS(=O)(=O)Nc1ccc(-c2cc(Cl)cc(Cl)c2)cc1C(=O)O",
    "SYSTEM_UNDER_TEST": "mtGPAT1 (Mus musculus, UniProt Q61586)",
    "REPORTED_RESULT": 19
  },
  {
    "SMILES_CODE": "CCCCCCCCS(=O)(=O)Nc1ccc(-c2cccc(Cl)c2)cc1C(=O)O",
    "SYSTEM_UNDER_TEST": "mtGPAT1 (Mus musculus, UniProt Q61586)",
    "REPORTED_RESULT": 13
  },
  {
    "SMILES_CODE": "CCCCCCCCS(=O)(=O)Nc1cc(-c2ccccc2Cl)ccc1C(=O)O",
    "SYSTEM_UNDER_TEST": "mtGPAT1 (Mus musculus, UniProt Q61586)",
    "REPORTED_RESULT": 23.1
  },
  {
    "SMILES_CODE": "CCCCCCCCS(=O)(=O)Nc1ccc(-c2cccc(O)c2)cc1C(=O)O",
    "SYSTEM_UNDER_TEST": "mtGPAT1 (Mus musculus, UniProt Q61586)",
    "REPORTED_RESULT": 57.7
  },
  {
    "SMILES_CODE": "CCCCCCCCS(=O)(=O)Nc1cc(-c2cccc(Cl)c2)ccc1C(=O)O",
    "SYSTEM_UNDER_TEST": "mtGPAT1 (Mus musculus, UniProt Q61586)",
    "REPORTED_RESULT": 16
  },
  {
    "SMILES_CODE": "CCCCCCCCS(=O)(=O)Nc1ccc(-c2cccs2)cc1C(=O)O",
    "SYSTEM_UNDER_TEST": "mtGPAT1 (Mus musculus, UniProt Q61586)",
    "REPORTED_RESULT": 22.2
  },
  {
    "SMILES_CODE": "CCCCCCCCS(=O)(=O)Nc1cc(-c2ccc(OC)cc2)ccc1C(=O)O",
    "SYSTEM_UNDER_TEST": "mtGPAT1 (Mus musculus, UniProt Q61586)",
    "REPORTED_RESULT": 16
  }
]
